Assay: Caco-2 intestinal permeability
Format: in vitro ADME, human
Details: human, Caco-2, pH 7.4, with Elacridar 2 µM, B→A + Elacridar 2 µM
property.measured: recovery at 60 min (%)

{"columns": ["compound", "val"],
 "data": [
  ["C[C@H]1O[C@@H](O[C@H]2[C@@H](O)C[C@H](O[C@H]3[C@@H](O)C[C@H](O[C@H]4CC[C@@]5(C)[C@H](CC[C@@H]6[C@@H]5C[C@@H](O)[C@]5(C)[C@@H](C7=CC(=O)OC7)CC[C@]65O)C4)O[C@@H]3C)O[C@@H]2C)C[C@H](O)[C@@H]1O [Digoxin, reference compound]", 75]
]}
